All values here come from patent US20260062412A1.

assayedSystem: MYT1 protein (Homo sapiens (Human), UniProt Q99640)
Sequence (Q99640 whole entry): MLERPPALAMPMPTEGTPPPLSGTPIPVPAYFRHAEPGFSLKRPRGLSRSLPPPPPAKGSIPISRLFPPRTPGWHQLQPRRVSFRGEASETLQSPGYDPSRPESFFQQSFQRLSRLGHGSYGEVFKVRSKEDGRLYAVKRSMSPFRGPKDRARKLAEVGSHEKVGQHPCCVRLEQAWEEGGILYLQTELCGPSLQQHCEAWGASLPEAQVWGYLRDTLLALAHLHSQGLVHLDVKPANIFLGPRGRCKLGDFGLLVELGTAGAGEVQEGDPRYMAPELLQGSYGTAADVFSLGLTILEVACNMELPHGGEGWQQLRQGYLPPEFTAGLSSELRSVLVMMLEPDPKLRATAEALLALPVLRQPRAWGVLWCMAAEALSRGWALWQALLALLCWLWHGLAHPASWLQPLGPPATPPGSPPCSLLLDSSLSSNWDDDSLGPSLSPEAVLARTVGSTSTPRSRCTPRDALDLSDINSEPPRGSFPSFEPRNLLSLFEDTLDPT
assaySummary: Test for binding to ATP binding site of MYT1 (Kinase Tracer 178 / Eu-Anti-GST antibody TR-FRET)
measurementSetup: ATP binding site of MYT1, 30 minutes at room temperature
pIC50: −log10 of the molar value.
Each item that follows carries a reported pIC50.
measurementType: pIC50

mol	measurementType	recordedMeasurement
Nc1c(-c2ccc(F)c3[nH]ncc23)c2cc(Br)c3ncc(F)cc3c2[nH]c1=O	pIC50	7.92
Cc1cc2c(-c3ccc(Cl)c4[nH]ncc34)c(N)c(=O)[nH]c2c2ccccc12	pIC50	7.82
Nc1c(-c2ccc(F)c3[nH]ncc23)c2cc(C3CC4(CC4)C3)c3ncccc3c2[nH]c1=O	pIC50	7.80
N#Cc1cc2c(-c3ccc(Cl)c4[nH]ncc34)c(N)c(=O)[nH]c2c2ccccc12	pIC50	7.85
Nc1c(-c2ccc(F)c3[nH]ncc23)c2cc(C3CC(F)(F)C3)c3ncccc3c2[nH]c1=O	pIC50	8.07
Nc1c(-c2ccc(F)c3[nH]ncc23)c2cc(N3CCC(N4CCOCC4)CC3)c3cccnc3c2[nH]c1=O	pIC50	7.82
